Species on record: Homo sapiens
Assay: Inhibitory activity against aggregation of human platelet induced by epinephrine 1
Type: functional
Details: read-out: I 50
MEASURED ATTRIBUTE: IC50

Query: What value of IC50 has been recorded for this entry: CCCCC[C@@H](O)/C=C/[C@@H]1C2CCC(O2)[C@H]1C/C=C\CCCC(=O)O (stereo in doubt; 4a)
Result: > 1000 µM

###

Species: Homo sapiens
Test: Inhibitory activity against aggregation of human platelet induced by adenosine diphosphate
Type: functional
Details: read-out: I50
MEASURED ATTRIBUTE: pIC50
On this scale, pIC50 is minus log10 of a concentration expressed in M (mol/L).

Query: Requested field: pIC50. Item: CCCCC[C@H](O)/C=C/[C@@H]1C2CCC(O2)[C@@H]1C/C=C\CCCC(=O)O (stereo in doubt; 3b)
Result: 3.51

###

Species: Cavia porcellus
Assay: Selectivity against histamine in smooth muscle of guinea pig trachea stimulated with histamine
Type: functional
Conditions: Muscle tissue, read-out: I 50
pIC50: −log10 of the molar value.
MEASURED ATTRIBUTE: pIC50

Query: # get_value(readout='pIC50', item= CCCCC[C@@H](O)/C=C/[C@@H]1C2CCC(O2)[C@H]1C/C=C\CCCC(=O)O (stereo in doubt; 4a) )
Result: < 5.00
